# reported Population Normal (%); entries follow
Tested on: Fibroblast
assay-method-text: Multiplex assay against human fibroblast
Format: toxicity, cell-based
assay-context: 24 h, 10 µM, compound concentration 10 uM, replicate 2
result-type: Population Normal (%)

INSERT INTO assay_data (compound, measurement) VALUES
  ('CN(C)C/C=C/C(=O)Nc1cc2c(Nc3ccc(F)c(Cl)c3)ncnc2cc1O[C@H]1CCOC1.O=C(O)/C=C\C(=O)O.O=C(O)/C=C\C(=O)O [AFATINIB DIMALEATE]', 64),
  ('Cl.Cl.NC1(c2ccc(-c3nc4ccn5c(=O)[nH]nc5c4cc3-c3ccccc3)cc2)CCC1', 42),
  ('CC(=O)c1cc(-c2cc(C(=O)NC3CC3)ccc2C)c2ncccn12', 97),
  ('O=C(O)c1ccc2cc(-c3ccc(O)c(C45CC6CC(CC(C6)C4)C5)c3)ccc2c1 [O-DEMETHYLATED ADAPALENE]', 92),
  ('Cc1cc2c(cc1N1C(=O)c3cccc4c(CCCO)ccc(c34)C1=O)n(C)c(=O)n2C', 88);

---

# reported Population Healthy Nuclei (%); entries follow
Test system: HEK-293T
assay-method-text: Multiplex assay against HEK293T
Format: toxicity, cell-based
assay-context: human, 24 h, 10 µM, compound concentration 10 uM, replicate 2
result-type: Population Healthy Nuclei (%)

INSERT INTO results (compound, test_system, measurement) VALUES
  ('Cl.Cl.Nc1ncnc2c1c(-c1cccc(OCc3ccccc3)c1)cn2[C@H]1C[C@@H](CN2CCC2)C1', 'HEK-293T', 11),
  ('CN(C)CCOc1ccc(-c2nc(-c3ccncc3)c(-c3ccc4c(c3)CC/C4=N\O)[nH]2)cc1', 'HEK-293T', 73),
  ('Cl.Cl.NC1(c2ccc(-c3nc4ccn5c(=O)[nH]nc5c4cc3-c3ccccc3)cc2)CCC1', 'HEK-293T', 53),
  ('CCn1c(-c2nonc2N)nc2cnc(Oc3cccc(NC(=O)c4ccc(OCCN5CCOCC5)cc4)c3)cc21 [GSK-269962A]', 'HEK-293T', 22),
  ('O=C(O)c1ccc2cc(-c3ccc(O)c(C45CC6CC(CC(C6)C4)C5)c3)ccc2c1', 'HEK-293T', 50),
  ('CCOc1cc2ncc(C#N)c(Nc3ccc(OCc4cccc(F)c4)c(Cl)c3)c2cc1NC(=O)/C=C/CN(C)C', 'HEK-293T', 81),
  ('N#Cc1cnc(Nc2cc(NC[C@H]3CNCCO3)c(C(F)(F)F)cn2)cn1', 'HEK-293T', 64),
  ('CC(=O)c1cc(-c2cc(C(=O)NC3CC3)ccc2C)c2ncccn12', 'HEK-293T', 51);

---

Test system: HEK-293T
assay-method-text: Multiplex assay against HEK293T
Assay type: toxicity, cell-based
assay-context: human, 12 h, 1 µM, compound concentration 1 uM, replicate 2
result-type: Population Hoechst High Intensity Objects (%)

INSERT INTO assay_data (compound, unit_name, measurement) VALUES
  ('CC(=O)O[C@H]1C(=O)[C@@]2(C)[C@H]([C@H](OC(=O)c3ccccc3)[C@]3(O)C[C@H](OC(=O)[C@H](O)[C@@H](NC(=O)c4ccccc4)c4ccccc4)C(C)=C1C3(C)C)[C@]1(OC(C)=O)CO[C@@H]1C[C@@H]2O', '%', 1),
  ('Nc1ccc(C(=O)Nc2cccc(-c3nc(N4CCOCC4)c4oc5ncccc5c4n3)c2)cn1', '%', 8),
  ('COc1ccc(NS(=O)(=O)c2sc3ccc(Cl)cc3c2C)cc1N1CCNCC1.Cl', '%', 3),
  ('CCC(=O)O[C@]1(C(=O)SCF)[C@H](C)C[C@H]2[C@@H]3C[C@H](F)C4=CC(=O)C=C[C@]4(C)[C@@]3(F)[C@@H](O)C[C@@]21C [FLUTICASONE PROPIONATE]', '%', 2);
